Answer each item with its documented log10(koff).
- Subject of test: T1, mouse programmed cell death protein 1 Fc fusion protein (mPD-1-Fc), mPD-1 C60S (aa 25-167) (Mus musculus, UniProt Q02242, stabilised)
- T1 construct: not cleaved; source: Expi293F, purified (Protein A, SEC; dimeric fraction); not shown: Fc (human), C-terminal, kept
- Test description: SPR; Carterra LSA; Fab from the ammonium sulfate precipitate of the culture supernatant immobilised on a NiHC200M chip; hPD-1 (1-1024 nM) or mPD-1-Fc (4-1024 nM) as analyte, fourfold dilution series, no regeneration; HBS-EP pH 7.4, 25 °C; medians over the spots of a construct, KD = koff/kon
- Measurement parameters: one partner purified
Reminder: these figures are log10 of reported koff, in s⁻¹ before transformation.

>>> value("toripalimab Fab L.V99F (Fab, V domains shown, as the heavy chain of Sm3; light chain of Sm3 with this change; numbers count from the chain's first residue; source: Brevibacillus, culture supernatant (ammonium sulfate precipitate); not shown: 6xHis, C-terminal, kept; 6xHN, C-terminal, kept) VH: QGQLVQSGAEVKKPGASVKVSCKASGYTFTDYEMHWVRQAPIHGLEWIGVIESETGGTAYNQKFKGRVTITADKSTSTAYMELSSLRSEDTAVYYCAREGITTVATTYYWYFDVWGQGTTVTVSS VL: DVVMTQSPLSLPVTLGQPASISCRSSQSIVHSNGNTYLEWYLQKPGQSPQLLIYKVSNRFSGVPDRFSGSGSGTDFTLKISRVEAEDVGVYYCFQGSHFPLTFGQGTKLEIK")
-2.98
>>> value("toripalimab Fab L.L101V (Fab, V domains shown, as the heavy chain of Sm3; light chain of Sm3 with this change; numbers count from the chain's first residue; source: Brevibacillus, culture supernatant (ammonium sulfate precipitate); not shown: 6xHis, C-terminal, kept; 6xHN, C-terminal, kept) VH: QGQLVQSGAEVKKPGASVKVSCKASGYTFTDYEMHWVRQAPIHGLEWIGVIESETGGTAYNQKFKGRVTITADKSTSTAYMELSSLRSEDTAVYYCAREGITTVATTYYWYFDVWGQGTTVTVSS VL: DVVMTQSPLSLPVTLGQPASISCRSSQSIVHSNGNTYLEWYLQKPGQSPQLLIYKVSNRFSGVPDRFSGSGSGTDFTLKISRVEAEDVGVYYCFQGSHVPVTFGQGTKLEIK")
-2.84
>>> value("toripalimab Fab H.G56Y (Fab, V domains shown, heavy chain of Sm3 with this change; numbers count from the chain's first residue; as the light chain of Sm3; source: Brevibacillus, culture supernatant (ammonium sulfate precipitate); not shown: 6xHis, C-terminal, kept; 6xHN, C-terminal, kept) VH: QGQLVQSGAEVKKPGASVKVSCKASGYTFTDYEMHWVRQAPIHGLEWIGVIESETYGTAYNQKFKGRVTITADKSTSTAYMELSSLRSEDTAVYYCAREGITTVATTYYWYFDVWGQGTTVTVSS VL: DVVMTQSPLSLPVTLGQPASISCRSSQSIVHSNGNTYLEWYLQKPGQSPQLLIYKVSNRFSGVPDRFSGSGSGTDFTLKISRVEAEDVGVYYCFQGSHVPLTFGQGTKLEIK")
-1.76
>>> value("toripalimab Fab H.V104Y (Fab, V domains shown, heavy chain of Sm3 with this change; numbers count from the chain's first residue; as the light chain of Sm3; source: Brevibacillus, culture supernatant (ammonium sulfate precipitate); not shown: 6xHis, C-terminal, kept; 6xHN, C-terminal, kept) VH: QGQLVQSGAEVKKPGASVKVSCKASGYTFTDYEMHWVRQAPIHGLEWIGVIESETGGTAYNQKFKGRVTITADKSTSTAYMELSSLRSEDTAVYYCAREGITTYATTYYWYFDVWGQGTTVTVSS VL: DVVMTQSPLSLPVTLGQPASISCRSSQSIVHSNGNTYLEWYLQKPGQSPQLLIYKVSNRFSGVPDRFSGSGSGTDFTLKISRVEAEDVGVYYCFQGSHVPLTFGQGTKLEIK")
-2.44
>>> value("toripalimab Fab H.W110Y (Fab, V domains shown, heavy chain of Sm3 with this change; numbers count from the chain's first residue; as the light chain of Sm3; source: Brevibacillus, culture supernatant (ammonium sulfate precipitate); not shown: 6xHis, C-terminal, kept; 6xHN, C-terminal, kept) VH: QGQLVQSGAEVKKPGASVKVSCKASGYTFTDYEMHWVRQAPIHGLEWIGVIESETGGTAYNQKFKGRVTITADKSTSTAYMELSSLRSEDTAVYYCAREGITTVATTYYYYFDVWGQGTTVTVSS VL: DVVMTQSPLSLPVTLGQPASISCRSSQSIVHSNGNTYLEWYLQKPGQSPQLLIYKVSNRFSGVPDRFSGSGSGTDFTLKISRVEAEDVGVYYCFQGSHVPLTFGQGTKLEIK")
-2.24
>>> value("toripalimab Fab L.V99P (Fab, V domains shown, as the heavy chain of Sm3; light chain of Sm3 with this change; numbers count from the chain's first residue; source: Brevibacillus, culture supernatant (ammonium sulfate precipitate); not shown: 6xHis, C-terminal, kept; 6xHN, C-terminal, kept) VH: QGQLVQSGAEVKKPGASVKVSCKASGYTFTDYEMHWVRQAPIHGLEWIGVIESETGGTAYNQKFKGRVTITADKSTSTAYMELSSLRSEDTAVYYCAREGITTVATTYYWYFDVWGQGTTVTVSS VL: DVVMTQSPLSLPVTLGQPASISCRSSQSIVHSNGNTYLEWYLQKPGQSPQLLIYKVSNRFSGVPDRFSGSGSGTDFTLKISRVEAEDVGVYYCFQGSHPPLTFGQGTKLEIK")
-3.15
>>> value("toripalimab Fab H.Y60A (Fab, V domains shown, heavy chain of Sm3 with this change; numbers count from the chain's first residue; as the light chain of Sm3; source: Brevibacillus, culture supernatant (ammonium sulfate precipitate); not shown: 6xHis, C-terminal, kept; 6xHN, C-terminal, kept) VH: QGQLVQSGAEVKKPGASVKVSCKASGYTFTDYEMHWVRQAPIHGLEWIGVIESETGGTAANQKFKGRVTITADKSTSTAYMELSSLRSEDTAVYYCAREGITTVATTYYWYFDVWGQGTTVTVSS VL: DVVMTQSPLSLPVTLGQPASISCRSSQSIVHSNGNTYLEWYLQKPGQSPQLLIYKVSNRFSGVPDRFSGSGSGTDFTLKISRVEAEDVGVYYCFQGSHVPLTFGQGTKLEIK")
-2.37
>>> value("toripalimab Fab L.S26A (Fab, V domains shown, as the heavy chain of Sm3; light chain of Sm3 with this change; numbers count from the chain's first residue; source: Brevibacillus, culture supernatant (ammonium sulfate precipitate); not shown: 6xHis, C-terminal, kept; 6xHN, C-terminal, kept) VH: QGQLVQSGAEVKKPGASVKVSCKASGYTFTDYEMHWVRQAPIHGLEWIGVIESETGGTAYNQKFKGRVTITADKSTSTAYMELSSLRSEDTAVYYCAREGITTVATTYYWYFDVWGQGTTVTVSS VL: DVVMTQSPLSLPVTLGQPASISCRSAQSIVHSNGNTYLEWYLQKPGQSPQLLIYKVSNRFSGVPDRFSGSGSGTDFTLKISRVEAEDVGVYYCFQGSHVPLTFGQGTKLEIK")
-2.42

Now, please, on to the next binder.
I am curious: what log10(koff) value has been reported for toripalimab Fab H.V114A (Fab, V domains shown, heavy chain of Sm3 with this change; numbers count from the chain's first residue; as the light chain of Sm3; source: Brevibacillus, culture supernatant (ammonium sulfate precipitate); not shown: 6xHis, C-terminal, kept; 6xHN, C-terminal, kept) VH: QGQLVQSGAEVKKPGASVKVSCKASGYTFTDYEMHWVRQAPIHGLEWIGVIESETGGTAYNQKFKGRVTITADKSTSTAYMELSSLRSEDTAVYYCAREGITTVATTYYWYFDAWGQGTTVTVSS VL: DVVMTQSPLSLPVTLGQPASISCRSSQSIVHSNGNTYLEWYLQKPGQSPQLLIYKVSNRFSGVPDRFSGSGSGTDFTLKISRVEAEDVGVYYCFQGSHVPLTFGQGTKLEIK ? -2.12
